Source of measurements: ChEMBL document CHEMBL5038595

assay: Cytotoxicity against human THP1-Dual cells assessed as reduction in cell viability incubated for 24 hrs by CCK-8 assay; format: toxicity, cell-based
quantity: CC50 at 24 h (µM)

> print(dat)
                                   compound  unit.of.measurement  limit.operator  measured.value
1  CC(=O)OCC(=O)N1CCC2=Nc3c(ccc(Cl)c3Cl)C2(Nc2cc(C(F)(F)F)cc(C(F)(F)F)c2)C1 (centres undefined)                   µM               =              11
2  CCOC(=O)c1ccc(NC23CN(C(=O)CO)CCC2=Nc2c3ccc(Cl)c2Cl)cc1 (centres undefined)                   µM               =            52.5
3  O=C(CO)N1CCC2=Nc3c(ccc(Cl)c3Cl)C2(c2c[nH]c3cc(F)ccc23)C1 (centres undefined)                   µM               =            32.1
4  O=C(CO)N1CCC2=Nc3c(ccc(Cl)c3Cl)C2(c2c[nH]c3cc(Cl)ccc23)C1 (centres undefined)                   µM               =            24.4
5  Cn1ccc(-c2cc(Cl)c(Cl)c3[nH]c4c(c23)CN(C(=O)CNC(=O)Cc2ccco2)CC4)n1                   µM               =            47.3
6  O=C(CO)N1CCC2=Nc3c(ccc(Cl)c3Cl)C2(Nc2cc(F)cc(F)c2)C1 (centres undefined)                   µM               >              50
7  CC(=O)OCC(=O)N1CCC2=Nc3c(ccc(Cl)c3Cl)C2(c2c[nH]c3ccccc23)C1 (centres undefined)                   µM               =              50
8  O=C(CO)N1C[C@H]2[C@H]3O[C@]4(Nc5ccc(Cl)cc53)c3ccc(Cl)c(Cl)c3N[C@]24C1 (racemic)                   µM               >              50
9  CC(=O)OCC(=O)N1CCC2=Nc3c(ccc(Cl)c3Cl)C2(Nc2cccc(Cl)c2C=O)C1 (centres undefined)                   µM               =            30.8

----------
biological target: Stimulator of interferon genes protein (Homo sapiens); experiment: Inhibition of STING-dependent cGAS activation in cGAMP treated human THP-1-Dual cells assessed as suppression of lipofectamine 2000:cGAMP-induced IRF luciferase expression at 10 uM incubated for 1 hr by Quanti-luc reagent based assay; assay type: cell-based
Calls of active or inactive are those of the source. No cut-off for these calls is given here.
Labels: class 1 (active), class 0 (inactive)

> print(dat)
                                   compound                              assay.system  discrete.label
1  O=C(CO)N1CCC2=Nc3c(ccc(Cl)c3Cl)C2(c2c[nH]c3ccccc23)C1 (stereo not drawn)  Stimulator of interferon genes protein (Homo sapiens)         class 1
2  O=C(CO)N1CCC2Nc3c(ccc(Cl)c3Cl)C2(c2c[nH]c3ccccc23)C1 (stereo not drawn)  Stimulator of interferon genes protein (Homo sapiens)         class 0
3  CC(=O)OCC(=O)N1CCC2=Nc3c(ccc(Cl)c3Cl)C2(Nc2ccc(Cl)cc2C=O)C1 (stereo not drawn)  Stimulator of interferon genes protein (Homo sapiens)         class 1

----------
target: Cyclic GMP-AMP synthase (Homo sapiens); experiment: Inhibition of human cGAS expressed in THP1-Dual cells transfected with HT-DNA assessed as suppression of lipofectamine 2000:ds-DNA complex induced activation of cGAS incubated for 1 hr by Quanti-luc reagent based assay; type: cell-based
Sequence (Q8N884 whole entry): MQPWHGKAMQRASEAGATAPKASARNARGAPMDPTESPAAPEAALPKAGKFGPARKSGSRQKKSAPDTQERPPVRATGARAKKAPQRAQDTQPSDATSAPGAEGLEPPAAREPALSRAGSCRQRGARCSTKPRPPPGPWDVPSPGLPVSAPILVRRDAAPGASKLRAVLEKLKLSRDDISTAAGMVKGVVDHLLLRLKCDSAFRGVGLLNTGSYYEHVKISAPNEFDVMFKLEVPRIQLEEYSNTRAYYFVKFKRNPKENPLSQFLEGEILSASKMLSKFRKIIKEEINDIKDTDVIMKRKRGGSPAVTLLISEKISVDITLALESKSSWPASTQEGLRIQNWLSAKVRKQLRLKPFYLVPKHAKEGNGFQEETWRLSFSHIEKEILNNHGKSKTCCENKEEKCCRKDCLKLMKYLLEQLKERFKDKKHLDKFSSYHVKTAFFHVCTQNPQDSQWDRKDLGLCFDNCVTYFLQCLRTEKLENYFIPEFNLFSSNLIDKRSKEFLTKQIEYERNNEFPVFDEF
pIC50: −log10 of the molar value.
quantity: pIC50

> print(dat)
                                    molecule                            assay.system  limit.operator  measured.value
 1  CC(=O)OCC(=O)N1CCC2=Nc3c(ccc(Cl)c3Cl)C2(Nc2ccccc2C=O)C1 (centres undefined)  Cyclic GMP-AMP synthase (Homo sapiens)               =            5.02
 2  O=C(CO)N1CCC2=Nc3c(ccc(Cl)c3Cl)C2(Nc2cc(C(F)(F)F)cc(C(F)(F)F)c2)C1 (centres undefined)  Cyclic GMP-AMP synthase (Homo sapiens)               =            5.51
 3  COc1ccc(OC)c2c1NC13CN(C(=O)CO)CCC21Nc1c3ccc(Cl)c1Cl (centres undefined)  Cyclic GMP-AMP synthase (Homo sapiens)               <            4.30
 4  Cn1ccc(-c2cc(Cl)c(Cl)c3[nH]c4c(c23)CN(C(=O)CNC(=O)[C@@H](N)Cc2cc[nH]n2)CC4)n1  Cyclic GMP-AMP synthase (Homo sapiens)               =            4.99
 5  Cn1ccc(-c2cc(Cl)c(Cl)c3[nH]c4c(c23)CN(C(=O)CNC(=O)C2=C[C@H](O)[C@H](O)[C@@H](O)C2)CC4)n1  Cyclic GMP-AMP synthase (Homo sapiens)               <            4.30
 6  O=C(CO)N1CCC2=Nc3c(ccc(Cl)c3Cl)C2(c2c[nH]c3cc(F)ccc23)C1 (centres undefined)  Cyclic GMP-AMP synthase (Homo sapiens)               =            4.85
 7  Cn1ccc(-c2cc(Cl)c(Cl)c3[nH]c4c(c23)CN(C(=O)CNC(=O)[C@@H](N)O)CC4)n1  Cyclic GMP-AMP synthase (Homo sapiens)               =            4.96
 8  O=C(CO)N1CCC2=Nc3c(ccc(Cl)c3Cl)C2(c2c[nH]c3ccccc23)C1 (centres undefined)  Cyclic GMP-AMP synthase (Homo sapiens)               =            5.16
 9  Cn1ccc(-c2cc(Cl)c(Cl)c3[nH]c4c(c23)CN(C(=O)CNC(=O)Cc2ccco2)CC4)n1  Cyclic GMP-AMP synthase (Homo sapiens)               =            5.14
10  CC(=O)OCC(=O)N1CCC2=Nc3c(ccc(Cl)c3Cl)C2(c2c[nH]c3ccccc23)C1 (centres undefined)  Cyclic GMP-AMP synthase (Homo sapiens)               =            5.20
11  Cn1ccc(-c2cc(Cl)c(Cl)c3[nH]c4c(c23)CN(C(=O)CN)CC4)n1  Cyclic GMP-AMP synthase (Homo sapiens)               =            5.73
12  Cn1ccc(-c2cc(Cl)c(Cl)c3[nH]c4c(c23)CN(C(=O)CNC(=O)C2(N)CC2)CC4)n1  Cyclic GMP-AMP synthase (Homo sapiens)               =            4.87
13  CC(=O)OCC(=O)N1CCC2Nc3c(ccc(Cl)c3Cl)C2(c2c[nH]c3ccccc23)C1 (centres undefined)  Cyclic GMP-AMP synthase (Homo sapiens)               =            5.26
14  Cn1ccc(-c2cc(Cl)c(Cl)c3[nH]c4c(c23)CN(C(=O)CNC(=O)C2CC(F)(F)CN2)CC4)n1 (single isomer, unassigned)  Cyclic GMP-AMP synthase (Homo sapiens)               =            5.19

----------
assay: Cytotoxicity against mouse RAW-Lucia ISG cells assessed as reduction in cell viability incubated for 24 hrs by CCK-8 assay; assay type: toxicity, cell-based
quantity: CC50 at 24 h

> print(dat)
                                   compound      quantity  measured.value
1  O=C(CO)N1CCC2=Nc3c(ccc(Cl)c3Cl)C2(c2c[nH]c3ccccc23)C1 (stereo not drawn)  CC50 at 24 h         > 50 µM
2  Cn1ccc(-c2cc(Cl)c(Cl)c3[nH]c4c(c23)CN(C(=O)CNC(=O)c2cccc(-c3noc(C(F)(F)F)n3)c2)CC4)n1  CC50 at 24 h         > 50 µM
3  O=C(CO)N1C[C@H]2[C@H]3O[C@]4(Nc5ccc(Cl)cc53)c3ccc(Cl)c(Cl)c3N[C@]24C1 (racemic)  CC50 at 24 h         > 50 µM

----------
biological target: UniProt:Q8N884; assay: Inhibition of human cGAS expressed in THP1-Dual cells transfected with HT-DNA assessed as suppression of lipofectamine 2000:ds-DNA complex induced activation of cGAS incubated for 1 hr by Quanti-luc reagent based assay; assay type: cell-based
quantity: IC50 (µM)

> print(dat)
                                    compound  quantity  unit.of.measurement  limit.operator  measured.value
 1  Cn1ccc(-c2cc(Cl)c(Cl)c3[nH]c4c(c23)CN(C(=O)C2(N)COC2)CC4)n1      IC50                   µM               >              50
 2  Cn1ccc(-c2cc(Cl)c(Cl)c3[nH]c4c(c23)CN(C(=O)CN2CCOCC2)CC4)n1      IC50                   µM               >              50
 3  O=C(CO)N1CCC2=Nc3c(ccc(Cl)c3Cl)C2(c2c[nH]c3cc(F)cc(F)c23)C1 (configuration not stated)      IC50                   µM               =            12.9
 4  CC(=O)OCC(=O)N1CCC2=Nc3c(ccc(Cl)c3Cl)C2(Nc2cc(C(F)(F)F)cc(C(F)(F)F)c2)C1 (configuration not stated)      IC50                   µM               =            3.23
 5  Cc1ccc(OC(F)(F)C(=O)NCC(=O)N2CCc3[nH]c4c(Cl)c(Cl)cc(-c5ccn(C)n5)c4c3C2)cc1      IC50                   µM               =            15.5
 6  O=C(CO)N1CCC2=Nc3c(ccc(Cl)c3Cl)C2(Nc2cc(F)cc(F)c2)C1 (configuration not stated)      IC50                   µM               >              50
 7  CC(=O)OCC(=O)N1CCC2=Nc3c(ccc(Cl)c3Cl)C2(Nc2ccc(Cl)cc2C=O)C1 (configuration not stated)      IC50                   µM               =            1.14
 8  CNCC(=O)N1CCc2[nH]c3c(Cl)c(Cl)cc(-c4ccn(C)n4)c3c2C1      IC50                   µM               =             6.3
 9  Cn1ccc(-c2cc(Cl)c(Cl)c3[nH]c4c(c23)CN(C(=O)CNC(=O)c2cccc(-c3noc(C(F)(F)F)n3)c2)CC4)n1      IC50                   µM               =              10
10  O=C(CO)N1C[C@H]2[C@H]3O[C@]4(Nc5ccccc53)c3ccc(Cl)c(Cl)c3N[C@]24C1 (racemic)      IC50                   µM               >              50
11  O=C(CO)N1CCC2Nc3c(ccc(Cl)c3Cl)C2(c2c[nH]c3ccccc23)C1 (configuration not stated)      IC50                   µM               =            4.07
12  Cn1ccc(-c2cc(Cl)c(Cl)c3[nH]c4c(c23)CN(C(=O)CNC(=O)CN2CCNCC2)CC4)n1      IC50                   µM               =            7.86
